- ASSAY NOTES: Cmax in Sprague-Dawley rat at 20 mg/kg, po administered as single dose
- Type: ADME, organism-based
- Design: dose 20 mg/kg, route oral
- SETTINGS: in vivo
Catalogue of Cmax values
Give the number; µg/mL is assumed, so skip it.

Known results for compounds:
{"SMILES TEXT": "O=[N+]([O-])c1cn2c(n1)OC[C@@H](OCc1ccc(-c3ccc(OC(F)(F)F)c(F)c3)nc1)C2", "SCALE UNIT": "µg/mL", "RECORDED VALUE": 7.2}
{"SMILES TEXT": "O=[N+]([O-])c1cn2c(n1)OC[C@@H](OCc1ccc(-c3ccc(OC(F)(F)F)cc3)cn1)C2", "SCALE UNIT": "µg/mL", "RECORDED VALUE": 16}
{"SMILES TEXT": "O=[N+]([O-])c1cn2c(n1)OC[C@@H](OCc1cnc(-c3ccc(OC(F)(F)F)cc3)cn1)C2", "SCALE UNIT": "µg/mL", "RECORDED VALUE": 7}

Lookup: Sample "O=[N+]([O-])c1cn2c(n1)OC[C@@H](OCc1ccc(-c3ccc(OC(F)(F)F)cc3)nc1)C2" — what was its Cmax?
Found: 8.1

* * *

- ASSAY NOTES: Half life in CD1 mouse plasma at 40 mg/kg, po administered as single dose
- Type: ADME, organism-based
- Parameters: dose 40 mg/kg, route oral
Label rule, in plain words: half-life of 9 h and up is y, under 9 h is n.

Lookup: Determine whether measured half-life meets or exceeds 9 h for "O=[N+]([O-])c1cn2c(n1)OC[C@@H](OCc1ccc(-c3ccc(OC(F)(F)F)cc3)nc1)C2"
Found: y

Lookup: One more compound: "O=[N+]([O-])c1cn2c(n1)OC[C@@H](OCc1ccc(-c3ccc(OC(F)(F)F)c(F)c3)nc1)C2"
Found: y

Lookup: One more compound: "O=[N+]([O-])c1cn2c(n1)OC[C@@H](OCc1ccc(-c3ccc(OC(F)(F)F)cc3)nn1)C2"
Found: n

Lookup: One more compound: "O=[N+]([O-])c1cn2c(n1)OC[C@@H](OCc1ccc(-c3ccc(OC(F)(F)F)c(Cl)c3)nc1)C2"
Found: y

Lookup: One more compound: "O=[N+]([O-])c1cn2c(n1)OC[C@@H](OCc1cnc(-c3ccc(OC(F)(F)F)cc3)cn1)C2"
Found: n

Lookup: One more compound: "O=[N+]([O-])c1cn2c(n1)OC[C@@H](OCc1ccc(-c3ccc(F)cc3)nc1)C2"
Found: n

Lookup: One more compound: "O=[N+]([O-])c1cn2c(n1)OC[C@@H](OCc1ccc(-c3ccc(OC(F)(F)F)cc3)cn1)C2"
Found: n

Lookup: One more compound: "O=[N+]([O-])c1cn2c(n1)OC[C@@H](OCc1ccc(-c3ccc(OC(F)(F)F)c(F)c3)cn1)C2"
Found: n

Lookup: One more compound: "O=[N+]([O-])c1cn2c(n1)OC[C@@H](OCc1cnc(-c3ccc(OC(F)(F)F)cc3)nc1)C2"
Found: y

* * *

Catalogue of log10(solubility) values
- ASSAY NOTES: physchem
- SETTINGS: water, pH 7
- Description: Solubility of the compound in water at pH 7.0 by HPLC
Log scale reminder: solubility in µg/mL, then log10 taken.

{"SMILES TEXT": "O=[N+]([O-])c1cn2c(n1)OC[C@@H](OCc1ccc(-c3cccc(F)n3)cn1)C2", "log10(solubility)": 1.61}
{"SMILES TEXT": "O=[N+]([O-])c1cn2c(n1)OC[C@@H](OCc1cncc(-c3ccc(F)cc3)c1)C2", "log10(solubility)": 1.65}
{"SMILES TEXT": "O=[N+]([O-])c1cn2c(n1)OC[C@@H](OCc1ccc(-c3ccnc(F)c3)cc1)C2", "log10(solubility)": 1.15}
{"SMILES TEXT": "O=[N+]([O-])c1cn2c(n1)OC[C@@H](OCc1cccc(-c3ccc(C(F)(F)F)cn3)c1)C2", "log10(solubility)": 0.60}
{"SMILES TEXT": "O=[N+]([O-])c1cn2c(n1)OC[C@@H](OCc1cccc(-c3cccnc3)c1)C2", "log10(solubility)": 2.04}

Lookup: Sample "O=[N+]([O-])c1cn2c(n1)OC[C@@H](OCc1ccc(-c3ccc(C(F)(F)F)cc3)cn1)C2" — what was its log10(solubility)?
Found: 0.36

Lookup: One more compound: "COc1ccc(-c2cncc(CO[C@@H]3COc4nc([N+](=O)[O-])cn4C3)c2)cc1F"
Found: 1.38

Lookup: One more compound: "O=[N+]([O-])c1cn2c(n1)OC[C@@H](OCc1ccc(-c3ccc(C(F)(F)F)cc3)nn1)C2"
Found: 0.73

* * *

Catalogue of half-life values
- ASSAY NOTES: Half life in CD1 mouse lung at 40 mg/kg, po administered as single dose
- Type: ADME, organism-based
- Set-up: dose 40 mg/kg, route oral
Give the number; h is assumed, so skip it.

{"SMILES TEXT": "O=[N+]([O-])c1cn2c(n1)OC[C@@H](OCc1ccc(-c3ccc(OC(F)(F)F)cc3)nc1)C2", "SCALE UNIT": "h", "RECORDED VALUE": 2.2}
{"SMILES TEXT": "O=[N+]([O-])c1cn2c(n1)OC[C@@H](OCc1ccc(-c3ccc(C(F)(F)F)nc3)cc1)C2", "SCALE UNIT": "h", "RECORDED VALUE": 9.1}

Lookup: Sample "O=[N+]([O-])c1cn2c(n1)OC[C@@H](OCc1ccc(-c3ccc(OC(F)(F)F)c(F)c3)cn1)C2" — what was its half-life?
Found: 7.9

Lookup: One more molecule: "O=[N+]([O-])c1cn2c(n1)OC[C@@H](OCc1ccc(-c3ccc(C(F)(F)F)cn3)cc1)C2"
Found: 10

Lookup: One more molecule: "O=[N+]([O-])c1cn2c(n1)OC[C@@H](OCc1ccc(-c3ccc(OC(F)(F)F)cc3)nn1)C2"
Found: 3.4

Lookup: One more molecule: "O=[N+]([O-])c1cn2c(n1)OC[C@@H](OCc1ccc(-c3ccc(OC(F)(F)F)c(F)c3)nc1)C2"
Found: 12

Lookup: One more molecule: "O=[N+]([O-])c1cn2c(n1)OC[C@@H](OCc1cnc(-c3ccc(OC(F)(F)F)cc3)nc1)C2"
Found: 18

* * *

Catalogue of solubility values
- ASSAY NOTES: physchem
- SETTINGS: water, pH 7
Give the number; µg/mL is assumed, so skip it.

{"SMILES TEXT": "COc1ccc(-c2cc(CO[C@@H]3COc4nc([N+](=O)[O-])cn4C3)ccn2)cn1", "SCALE UNIT": "µg/mL", "solubility": 93}
{"SMILES TEXT": "O=[N+]([O-])c1cn2c(n1)OC[C@@H](OCc1ccc(-c3ccncc3)cc1)C2", "SCALE UNIT": "µg/mL", "solubility": 22}
{"SMILES TEXT": "Nc1ccc(-c2ccc(CO[C@@H]3COc4nc([N+](=O)[O-])cn4C3)cc2)cn1", "SCALE UNIT": "µg/mL", "solubility": 13}
{"SMILES TEXT": "O=[N+]([O-])c1cn2c(n1)OC[C@@H](OCc1ccc(-c3ccc(C(F)(F)F)cc3)cc1)C2", "SCALE UNIT": "µg/mL", "solubility": 0.43}

Next:
Lookup: Sample "O=[N+]([O-])c1cn2c(n1)OC[C@@H](OCc1ccc(-c3ccc(F)cc3)nn1)C2" — what was its solubility?
Found: 8.3

* * *

Catalogue of log10 of solubility values
- ASSAY NOTES: physchem
- SETTINGS: water, pH 7
Log scale reminder: solubility in mg/mL, then log10 taken.

{"SMILES TEXT": "O=[N+]([O-])c1cn2c(n1)OC[C@@H](OCc1cccc(-c3ccc(C(F)(F)F)cc3)n1)C2", "PROPERTY": "log10 of solubility", "RECORDED VALUE": -2.30}

Next:
Lookup: Sample "O=[N+]([O-])c1cn2c(n1)OC[C@@H](OCc1ccnc(-c3ccc(OC(F)F)cc3)c1)C2" — what was its log10 of solubility?
Found: -1.80

* * *

Catalogue of Cmax values
- ASSAY NOTES: Cmax in CD1 mouse plasma at 40 mg/kg, po administered as single dose
- Type: ADME, organism-based
- Parameters: dose 40 mg/kg, route oral
Give the number; ng/mL is assumed, so skip it.

Known results for molecules:
{"SMILES TEXT": "O=[N+]([O-])c1cn2c(n1)OC[C@@H](OCc1ccc(-c3ccc(C(F)(F)F)cn3)cc1)C2", "Cmax, ng/mL": 1100}
{"SMILES TEXT": "O=[N+]([O-])c1cn2c(n1)OC[C@@H](OCc1ccc(-c3ccc(OC(F)(F)F)cc3)cn1)C2", "Cmax, ng/mL": 26000}
{"SMILES TEXT": "O=[N+]([O-])c1cn2c(n1)OC[C@@H](OCc1cnc(-c3ccc(OC(F)(F)F)cc3)nc1)C2", "Cmax, ng/mL": 1200}

Next:
Lookup: Sample "O=[N+]([O-])c1cn2c(n1)OC[C@@H](OCc1ccc(-c3ccc(OC(F)(F)F)c(F)c3)cn1)C2" — what was its Cmax?
Found: 7600
